system: KM12 colon; assay: NCI tumour cell line growth inhibition, 48 h
Assign TGI to each entry below.
# output: bare number, implied unit µM

Query string: Sample CSc1c(S(C)=O)[nH]c2cc(Br)cc(Br)c12 (stereo not given) — what was its TGI?
Result string: 62.6

Query string: Sample Fc1c[c-]c(-c2ccccn2)c(F)c1.[CH3-].[Pt+2].c1ccc([PH+](c2ccccc2)c2ccccn2)cc1 — what was its TGI?
Result string: 6.49

Query string: Sample NC(=O)c1ccc2nc(-c3ccc(C4(N)CCC4)cc3)c(-c3ccccc3)n2n1 — what was its TGI?
Result string: 25.3

Query string: Sample CSC1=Nc2c(c(C)c(-c3ccccc3)n2CCCCl)C2=NC(=O)CN12 — what was its TGI?
Result string: 18.7

Query string: Sample Cc1cc(O)c(C2=NN(c3ccc(S(N)(=O)=O)cc3)C(c3ccccc3O)C2)cc1Cl (stereo not given) — what was its TGI?
Result string: 3.4

Query string: Sample COc1cc(/C=C2\N=C(c3ccccc3)N(c3nc4cc(C)c(C)cc4s3)C2=O)cc(OC)c1OC — what was its TGI?
Result string: 71.2
